IC50 values by entry
Molecular target: Apoptotic protease-activating factor 1 (Homo sapiens, UniProt O14727)
Sequence (O14727 whole entry): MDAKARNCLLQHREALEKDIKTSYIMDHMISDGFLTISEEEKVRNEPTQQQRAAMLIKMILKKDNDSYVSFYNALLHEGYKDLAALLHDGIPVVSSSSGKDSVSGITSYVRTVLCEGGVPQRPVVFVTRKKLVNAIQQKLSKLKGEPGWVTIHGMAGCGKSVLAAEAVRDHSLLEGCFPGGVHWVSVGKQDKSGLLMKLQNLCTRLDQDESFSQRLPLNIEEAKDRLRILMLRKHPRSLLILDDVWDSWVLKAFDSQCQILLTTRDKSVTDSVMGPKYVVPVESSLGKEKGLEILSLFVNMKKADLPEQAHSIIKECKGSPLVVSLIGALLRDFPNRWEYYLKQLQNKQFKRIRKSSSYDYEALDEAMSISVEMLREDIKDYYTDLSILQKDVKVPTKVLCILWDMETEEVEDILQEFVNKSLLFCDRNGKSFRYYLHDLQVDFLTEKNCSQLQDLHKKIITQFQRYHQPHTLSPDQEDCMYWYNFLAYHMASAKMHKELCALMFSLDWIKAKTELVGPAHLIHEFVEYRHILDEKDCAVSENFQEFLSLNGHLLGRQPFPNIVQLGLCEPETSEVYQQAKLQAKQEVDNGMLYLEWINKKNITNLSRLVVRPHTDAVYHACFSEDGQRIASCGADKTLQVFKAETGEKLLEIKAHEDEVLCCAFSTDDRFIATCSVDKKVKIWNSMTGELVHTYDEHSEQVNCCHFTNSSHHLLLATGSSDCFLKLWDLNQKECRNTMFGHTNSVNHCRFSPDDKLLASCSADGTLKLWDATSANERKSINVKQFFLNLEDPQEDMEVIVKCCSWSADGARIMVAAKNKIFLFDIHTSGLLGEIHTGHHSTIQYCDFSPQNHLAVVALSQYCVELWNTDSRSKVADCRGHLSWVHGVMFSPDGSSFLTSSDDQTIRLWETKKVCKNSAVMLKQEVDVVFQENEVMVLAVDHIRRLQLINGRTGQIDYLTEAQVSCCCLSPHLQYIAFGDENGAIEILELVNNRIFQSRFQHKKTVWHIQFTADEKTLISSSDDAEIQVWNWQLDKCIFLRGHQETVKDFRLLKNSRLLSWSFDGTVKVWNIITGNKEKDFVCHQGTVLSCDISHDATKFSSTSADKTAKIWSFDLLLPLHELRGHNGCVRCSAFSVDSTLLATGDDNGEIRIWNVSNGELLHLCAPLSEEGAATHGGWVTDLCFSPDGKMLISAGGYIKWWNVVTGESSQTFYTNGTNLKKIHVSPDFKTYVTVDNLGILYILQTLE
Type: functional
The source made the active and inactive calls.

These recorded examples may help you get a feel for the data.
INSERT INTO assay_data (compound, result) VALUES
  ('CCC(C)(C)c1ccc(OCCCC[n+]2cccc(C)c2C)c(C(C)(C)CC)c1', '20.2 µM (active)'),
  ('CCCCNC1=CC(=O)C(=O)c2ccccc21', '6.49 µM (active)'),
  ('CC(C)(C)c1ccc(S(=O)(=O)/N=C2\C=C(NS(=O)(=O)c3ccccc3)C(=O)c3ccccc32)cc1', '15 µM (active)'),
  ('CCOC(=O)c1c(C)n(-c2ccc(C)cc2)c2c(C(C(C)=O)C(=O)O)c(Br)c(O)c(O)c12 (stereo unspecified)', '12.3 µM (active)'),
  ('Cc1ccc(S(=O)(=O)[N-]C2=C(n3cc[n+](CCC(C)C)c3)C(=O)c3ccccc3C2=O)cc1', '12.2 µM (active)');

Then this compound:
Notebook: pull reported IC50 for Apoptotic protease-activating factor 1 (Homo sapiens, UniProt O14727), entry `CCOC(=O)c1c2ccc(OCC(=O)NN)cc2n2ccccc12`
18.5 µM (active)
